- Tested on: P. aeruginosa GN_043, PmxR
- Experimental parameters: P. aeruginosa GN_043, PmxR
Positions of bridges follow the written chain, without caps; N, C: chain ends. Non-standard residues stand in square brackets, D forms with d. Residues, ends and D or L forms follow the SMILES beside them. *: point of attachment. Decanoyl(3R-OH) = CCCCCCC[C@@H](O)CC(=O)*; X1 = CCCCCCCN1CCC(C(=O)*)CC1; dDab = NCC[C@@H](N)C(=O)O; dDap = NC[C@@H](N)C(=O)O; Dab = NCC[C@H](N)C(=O)O; Nva = CCC[C@H](N)C(=O)O
Property: MIC P. aeruginosa GN_043, PmxR (µg/mL)
Numbers only; they are read as µg/mL.

Worked examples, 3 molecules total:
{"Molecule": "CCCCCCC[C@@H](O)CC(=O)N[C@H](CCN)C(=O)N[C@H]1CCNC(=O)[C@H](CC(C)C)NC(=O)[C@H](CCN)NC(=O)[C@H](CCN)NC(=O)[C@H](CC(C)C)NC(=O)[C@@H](Cc2ccc(O)cc2)NC(=O)[C@H](CCN)NC1=O [compound 5008] ({Decanoyl(3R-OH)}-[dDab][Dab][Dab][dY]L[Dab][Dab]L; lactam 2-C)", "System name": "P. aeruginosa GN_043, PmxR", "MIC P. aeruginosa GN_043, PmxR [µg/mL]": 2}
{"Molecule": "CCCCCCC[C@@H](O)CC(=O)N[C@H](CN)C(=O)N[C@H]1CCNC(=O)[C@H](CC(C)C)NC(=O)[C@H](CCN)NC(=O)[C@H](CCN)NC(=O)[C@H](C(C)C)NC(=O)[C@@H](Cc2ccccc2)NC(=O)[C@H](CCN)NC1=O [compound 9291] ({Decanoyl(3R-OH)}-[dDap][Dab][Dab][dF]V[Dab][Dab]L; lactam 2-C)", "System name": "P. aeruginosa GN_043, PmxR", "MIC P. aeruginosa GN_043, PmxR [µg/mL]": 2}
{"Molecule": "CCCCCCC[C@@H](O)CC(=O)N[C@H](CN)C(=O)N[C@H]1CCNC(=O)[C@H](CC(C)C)NC(=O)[C@H](CCN)NC(=O)[C@H](CCN)NC(=O)[C@H](CCC)NC(=O)[C@@H](Cc2ccccc2)NC(=O)[C@H](CCN)NC1=O [compound 9293] ({Decanoyl(3R-OH)}-[dDap][Dab][Dab][dF][Nva][Dab][Dab]L; lactam 2-C)", "System name": "P. aeruginosa GN_043, PmxR", "MIC P. aeruginosa GN_043, PmxR [µg/mL]": 1}

QUERY: GET /values?readout=MIC P. aeruginosa GN_043, PmxR&item= CCCCCCCN1CCC(C(=O)N[C@H](CCN)C(=O)N[C@H]2CCNC(=O)[C@H](CC(C)C)NC(=O)[C@H](CCN)NC(=O)[C@H](CCN)NC(=O)[C@H](Cc3ccccc3)NC(=O)[C@@H](CC(C)C)NC(=O)[C@H](CCN)NC2=O)CC1 [compound 6516] (X1-[dDab][Dab][Dab][dL]F[Dab][Dab]L; lactam 2-C)
RESULT: 0.5
